Tested on: CCRF-CEM
PROCEDURE_SUMMARY: NCI tumour cell line growth inhibition, 48 h
The source made the active and inactive calls. No stated cut-off is given here; in the data, active = GI50 up to about 1.1 µM and inactive = higher.
Outcome (select one): Y (active), N (inactive)

The following compounds have reported results that may help.
COC(=O)CCC(NC(=S)N/N=C/c1ccco1)C(=O)OC (stereo unspecified) :: N
CC[C@@H](C)[C@H](NC(=O)[C@H](Cc1ccccc1)NCC(F)(F)F)C(=O)OC(C)(C)C :: N
O=C(Nc1nncs1)NS(=O)(=O)n1cnc2ccccc21 :: N
CC(=O)NC1C(OCc2ccccc2)OC(CO)C(O)C1OCC(=O)N[C@@H](C)C(=O)N[C@H](CCC(=O)NCCNCCNc1c2ccccc2nc2cccc([N+](=O)[O-])c12)C(N)=O (stereo partly specified) :: N
COc1ccc(C=O)c(NC(=O)C(C)C)c1 :: N

Q. In this assay, the call recorded for `COc1cc(Cc2cc(OC)c(OC)c(OC)c2)ccc1O` was what?
A. N

Q. In this assay, the call recorded for CCc1cccc(CC)c1NC(=O)C(C#N)C1=C(Cl)C(=O)c2ccccc2C1=O (stereo unspecified) was what?
A. N

Q. In this assay, the call recorded for Cc1ccc2c(c1)C(c1cccc3ccccc13)OC2=O (stereo unspecified) was what?
A. N

Q. In this assay, the call recorded for C=C1CCC2CC1[C@@H](C(=O)c1c[nH]c3ccccc13)NC2(C)C (stereo partly specified) was what?
A. N

Q. In this assay, the call recorded for `COC(=O)NN=C1C(C)(C)C(=O)C1(C)C` was what?
A. N

Q. In this assay, the call recorded for `CO/N=C(\C(=O)O/C(=N/C1CCCCC1)NC1CCCCC1)c1csc(NC(c2ccccc2)(c2ccccc2)c2ccccc2)n1` was what?
A. N

Q. In this assay, the call recorded for `CCCCCC/C=C/C#CCCCCCCCC(=O)O` was what?
A. N

Q. In this assay, the call recorded for `CSc1nc(C)c(CCOC(C)=O)c(Cl)n1` was what?
A. N

Q. In this assay, the call recorded for `O=C1Nc2ccccc2/C1=C1/Nc2ccccc2/C1=N/OCCOCCO` was what?
A. N

Q. In this assay, the call recorded for `CCCC(=O)Nc1cn(COC)c(C(=O)N2C[C@H]3C[C@@]34C2=CC(=O)c2[nH]cc(C)c24)n1` was what?
A. Y

Q. In this assay, the call recorded for `CC1(C)OC(=O)C(C#N)=C1/C=C/c1coc2ccc(Cl)cc2c1=O` was what?
A. N
